Test system: Escherichia coli
CONDITION_SET: Escherichia coli, CLSI M7-A10, triplicate 1
Measured Minimum inhibitory concentration, listed per entry.
Your answer is read as µM, so omit the unit and give the number.

# annotated cases, reported Minimum inhibitory concentration shown
INSERT INTO assay_data (monomer_sequence, measurement_target, meas_value) VALUES
  ('GIGKFLHSAKKFGKAFVGEIMNS [Mag-2a, Magainin-2a, reference compound]', 'Escherichia coli', 8),
  ('ANRLLEAYKMLLKFLGNLR [Gr02]', 'Escherichia coli', 4),
  ('KVLSKVHTLLKAVLAL [At02]', 'Escherichia coli', 2),
  ('GSLHGFMYRYLKNMVLNLF [Cs01]', 'Escherichia coli', 32);

The recorded Minimum inhibitory concentration for GFKLGRKLVKVFKWII [Gr01] is 0.5

The recorded Minimum inhibitory concentration for FLSLIPHAINAVSTLVHHF [PS-2, reference compound] is 8

====

System: Pseudomonas syringae pv. tabaci
CONDITION_SET: Pseudomonas syringae pv. tabaci, CLSI M7-A10, triplicate 1
Experimental: Antimicrobial activity was tested against three categories of human and plant pathogenic microorganisms: Gram-positive (Bacillus subtilis, Bacillus cereus, Staphylococcus aureus), Gram-negative (Escherichia coli, Pseudomonas aeruginosa, Erwinia carotovora, Pseudomonas syringae pv. tabaci, Xanthomonas campestris pv. citri) and yeasts (Candida albicans, Cryptococcus neoformans), as previously reported. […]
Measured log10 Minimum inhibitory concentration, listed per entry.
All values: base-10 log of Minimum inhibitory concentration in µM.

Item GSLHGFMYKYLKNMVLNLF [Tc06] ; assay system Pseudomonas syringae pv. tabaci; log10 Minimum inhibitory concentration reported as 1.20

Item KVLSKVHTLLKAVLAL [At02] ; assay system Pseudomonas syringae pv. tabaci; log10 Minimum inhibitory concentration reported as 0.60

====

Measured Minimum inhibitory concentration, listed per entry.
Test system: Pseudomonas aeruginosa
CONDITION_SET: Pseudomonas aeruginosa, triplicate 2
Description: Antimicrobial activity was tested against three categories of human and plant pathogenic microorganisms: Gram-positive (Bacillus subtilis, Bacillus cereus, Staphylococcus aureus), Gram-negative (Escherichia coli, Pseudomonas aeruginosa, Erwinia carotovora, Pseudomonas syringae pv. tabaci, Xanthomonas campestris pv. citri) and yeasts (Candida albicans, Cryptococcus neoformans), as previously reported. […]

INSERT INTO assay_data (monomer_sequence, meas_value) VALUES
  ('GSLHGFMYKYLKNMVLNLF [Tc06]', '32 µM'),
  ('GFKDLLKGAAKALVKTVLF [Asc-8, Ascaphin 8, reference compound]', '4 µM'),
  ('FFGHIWHGARTLFRDVFA [Cs02]', '512 µM'),
  ('GSLHGFMYKYLKNMVLTLF [At01]', '32 µM'),
  ('KVLSKVHTLLKAVLAL [At02]', '4 µM');

The recorded Minimum inhibitory concentration for ANRLLEAYKMLLKFLGNLR [Gr02] is 32 µM

The recorded Minimum inhibitory concentration for GFKLGRKLVKVFKWII [Gr01] is 4 µM

The recorded Minimum inhibitory concentration for GSLHGFMYRYLKNMVLNLF [Cs01] is 32 µM

The recorded Minimum inhibitory concentration for GIGDILKNLAKAAGKAALHAVGESL [HSP-4, Hylaseptin-4, reference compound] is 16 µM

The recorded Minimum inhibitory concentration for GKILKYLLYLLRKYANLIIR [Tc02] is 16 µM

The recorded Minimum inhibitory concentration for GAKLAKKQVRALGKFFSF [At03] is 512 µM

The recorded Minimum inhibitory concentration for FLSLIPHAINAVSTLVHHF [PS-2, reference compound] is 512 µM

The recorded Minimum inhibitory concentration for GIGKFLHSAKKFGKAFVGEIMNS [Mag-2a, Magainin-2a, reference compound] is 512 µM

The recorded Minimum inhibitory concentration for IKLRNVLKYLFRIDVIKEDIL [Tc03] is 512 µM

The recorded Minimum inhibitory concentration for GSLHGFMYKYLKTLVLRLY [Zm01] is 16 µM

The recorded Minimum inhibitory concentration for LHRLVKLVAALLRGYASKVDTH [Tc08] is 4 µM

The recorded Minimum inhibitory concentration for GLKDMIKNLAKEAAVKLAGAVINKFSPQPQ [Nat-1, Nattererin-1, reference compound] is 32 µM
